# protocol summary: physchem
# experimental context: water
recorded endpoint: solubility
Give your result as the value with the unit written after it.

Q) Give the measured solubility of O=C(N[C@@H](Cc1ccccc1)[C@@H](O)C(=O)N1C[C@@H](O)[C@@H](O)C1)c1cc2cc(Cl)ccc2[nH]1 [Drug 2] .
A) 80 µg/mL
